tested on: Nicotiana tabacum; experiment: Cytokinin-like effect in tobacco assessed as stimulation of callus growth at 10 umol/L relative to 6-benzylaminopurine; assay type: functional; conditions: at 10 µM
property.label: Activity (%)
Answer in %, number only, no unit symbol.

Field: example entries. Status: answers known.
COc1cccc(Nc2nc(N)nc3[nH]cnc23)c1: 71
COc1cccc(Nc2nc(Cl)nc3c2ncn3C)c1: 76
Clc1cccc(Nc2nc(Cl)nc3[nH]cnc23)c1: 95
Oc1cccc(Nc2nc(Cl)nc3[nH]cnc23)c1: 111
COc1cccc(Nc2nc(F)nc3[nH]cnc23)c1: 74

[Q] Under Nicotiana tabacum: Activity value of `COc1cccc(Nc2nc(Cl)nc3c2ncn3C(C)C)c1` ?
[A] 38

[Q] Form field - read-out: Activity; system: Nicotiana tabacum; submitted item: `COc1cccc(Nc2nc(Cl)nc3[nH]cnc23)c1`
[A] 103

[Q] Checklist item: Activity tested on Nicotiana tabacum, entry `COc1ccc(Nc2nc(Cl)nc3[nH]cnc23)cc1` , value?
[A] 76
